Reference source for all entries: ChEMBL document CHEMBL4665837

- Method notes: AUCt/dose in Sprauge-Dawley rat
- Format: ADME
- Test context: in vivo
Measurement kind: AUCt/dose (µM·kg·h/mg)

> print(dat)
                                chem.smiles  value.measured
1  COC(=O)N(C)c1c(N)nc(-n2nc(Cc3c(F)ccc(F)c3F)c3ccccc32)nc1N            15.3
2  COC(=O)N(C)c1c(N)nc(-n2nc(Cc3c(F)ccc(F)c3F)c3cc(Cl)ccc32)nc1N              18
3  COC(=O)N(C)c1c(N)nc(-n2nc(Cc3ccccc3F)c3cc(F)ccc32)nc1N             4.6
4  COC(=O)Nc1c(N)nc(-n2nc(Cc3c(F)ccc(F)c3F)c3cc(Cl)ccc32)nc1N            25.2

----------
- Method notes: Clearance in monkey at 0.5 mg/kg, iv and 2 mg/kg, po
- Format: ADME, organism-based, Macaca mulatta
- Test context: rhesus monkey, in vivo
Measurement kind: clearance (mL/min/kg)

> print(dat)
                                chem.smiles  value.measured
1  CC1(C)C(=O)Nc2nc(-n3nc(CCC(F)(F)F)c4cc(Cl)ccc43)nc(N)c21              34

----------
- Method notes: Total Plasma clearance in Sprauge-Dawley rat
- Format: ADME
- Test context: Sprague-Dawley
Measurement kind: clearance (mL/min/kg)

> print(dat)
                                chem.smiles  measurement.unit  value.measured
1  COC(=O)N(C)c1c(N)nc(-n2nc(Cc3ccccc3F)c3cc(F)ccc32)nc1N         mL/min/kg             1.4
2  COC(=O)N(C)c1c(N)nc(-n2nc(Cc3c(F)ccc(F)c3F)c3cc(Cl)ccc32)nc1N         mL/min/kg             0.9
3  COC(=O)N(C)c1c(N)nc(-n2nc(Cc3c(F)ccc(F)c3F)c3ccccc32)nc1N         mL/min/kg             1.6

----------
- Method notes: Drug level in SRH rat plasma at 0.3 mg/kg , po measured after 4 hrs
- Type: ADME, organism-based
Measurement kind: concentration at 4 h

> print(dat)
                                chem.smiles      measurement.kind  value.measured
1  CC1(C)C(=O)Nc2nc(-n3nc(CCC(F)(F)F)c4cc(Cl)ccc43)nc(N)c21  concentration at 4 h           36 nM

----------
- Method notes: Half life in monkey at 0.5 mg/kg, iv and 2 mg/kg, po
- Type: ADME, organism-based, Macaca mulatta
- Test context: rhesus monkey, in vivo
Measurement kind: half-life

> print(dat)
                                chem.smiles  measurement.kind  value.measured
1  CC1(C)C(=O)Nc2nc(-n3nc(CCC(F)(F)F)c4cc(Cl)ccc43)nc(N)c21         half-life           1.4 h

----------
- Method notes: Half life in dog at 1 mg/kg, iv and 10 mg/kg, po
- Type: ADME, organism-based, Canis lupus familiaris
- Test context: in vivo
Measurement kind: half-life (h)

> print(dat)
                                chem.smiles  measurement.kind  value.measured
1  CC1(C)C(=O)Nc2nc(-n3nc(CCC(F)(F)F)c4cc(Cl)ccc43)nc(N)c21         half-life             1.3
